Below is a list of entries, each paired with its recorded IC50 value.
- target_of_assay: Histone deacetylase 8 (Homo sapiens, UniProt Q9BY41)
- Sequence (Q9BY41 whole entry): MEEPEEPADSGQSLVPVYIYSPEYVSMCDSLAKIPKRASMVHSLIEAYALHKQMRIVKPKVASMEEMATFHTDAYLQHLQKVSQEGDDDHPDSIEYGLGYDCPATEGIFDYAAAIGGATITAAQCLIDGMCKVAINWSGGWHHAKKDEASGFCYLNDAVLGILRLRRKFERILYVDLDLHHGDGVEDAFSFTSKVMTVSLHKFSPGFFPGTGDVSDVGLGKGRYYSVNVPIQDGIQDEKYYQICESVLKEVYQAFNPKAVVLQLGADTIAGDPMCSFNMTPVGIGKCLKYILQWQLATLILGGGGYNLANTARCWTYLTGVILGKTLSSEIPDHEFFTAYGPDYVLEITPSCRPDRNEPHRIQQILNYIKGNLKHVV
- test_method_notes: Inhibition of recombinant human HDAC8 using fluorogenic substrate by fluorescence assay

> print(dat)
                                test.smiles  data.value
1  COc1ccc2c(C(=O)c3cc(OC)c(OC)c(OC)c3)cn(S(=O)(=O)c3cccc(/C=C/C(=O)NO)c3)c2c1     16.2 µM

Next up:
Find the recorded IC50 belonging to COc1ccc2c(C(=O)c3cc(OC)c(OC)c(OC)c3)cn(Cc3ccc(C(=O)NO)cc3)c2c1 and report it.
0.39 µM
